# credit: PubChem BioAssay (NCI)

# System: HCT-15 colon
# Test Protocol: NCI-60 one-dose screen, 48 h (100 = growth as untreated, 0 = no growth, -100 = all killed)
# Details: 10 µM
This is part of a sample that, as a whole, favours compounds with a hit. Of some 83,000 tested, about 20% had one in any assay.
Readout Type: growth (%)

| Compound | Readout Type | Quantitative Readout |
| --- | --- | --- |
| FC(F)(F)c1ccc(-c2nc(-c3nc4cc(Cl)c(Cl)cc4[nH]3)c3ccccn23)cc1 | growth | 82.6 |
| C#CCNCCCN1C(=O)c2ccc3c4c(ccc(c24)C1=O)C(=O)N(CCCNCC#C)C3=O | growth | -82.3 |
| COc1ccc(C(=O)n2nc(CC(=O)NCc3ccccc3)nc2N)cc1 | growth | 107 |
| Cc1cn(C(=O)/C(Cl)=C(/Cl)C(=O)O)c2ccccc12 | growth | 105 |
| O=C(OCC1OC(n2cc(C(F)(F)F)c(=O)[nH]c2=O)CC1OC(=O)c1ccc([N+](=O)[O-])cc1)c1ccc([N+](=O)[O-])cc1 (stereo unspecified) | growth | 87 |
| COc1cccc(-c2nnc(COc3ccc(-c4nc5ccccc5[nH]4)cc3OC)o2)c1 | growth | 78.3 |
| CCc1nn2c(-c3cc(OC)c(OC)c(OC)c3)c(-c3cc(OC)c(OC)c(OC)c3)nc2s1 | growth | 77.9 |
| N#C/C(=C\N1C(=O)/C(=C/c2cccc([N+](=O)[O-])c2)SC1=S)c1nc2ccccc2s1 | growth | 95 |
| COc1ccc(-c2nc3sc(-c4ccccc4)c(-c4ccccc4)n3c2/C=C/c2ccc(F)cc2)cc1 | growth | 91.4 |
| CCOC(=O)c1cc2c(n1Cc1cccc(OC)c1)-c1oncc1CC2 | growth | 28.7 |
| COc1ccccc1S(=O)(=O)Nc1ccc2c(c1)CN(C)C(=O)N2 | growth | 40.8 |
| CN(C)c1ccc2cc(-c3cc4c(oc3=O)-c3ccccc3OC4O)c(=O)oc2c1 (stereo unspecified) | growth | 7.71 |
| CCCCCCCC/C=C/CCCCCCCCC1=NCCN1CCO | growth | 59.2 |
| Cc1nc(Nc2nc3ccccc3o2)nc(-c2cccc([N+](=O)[O-])c2)c1C(=O)Nc1ccc(F)c(Cl)c1 | growth | 15.5 |
| COC(=O)c1ccc(Cn2ccc(=O)[nH]c2=O)cc1 | growth | 101 |
| CC(=O)OCC(COC(C)=O)(COC(C)=O)COC(C)=O | growth | 102 |
| CCCCCCCCCCCCCCCCCBr | growth | 102 |
| O/N=C1\CCC2CCCCC2C1 (stereo unspecified) | growth | 99.6 |
| Cc1ccc([P+](Cc2ccc([N+](=O)[O-])cc2)(c2ccc(C)cc2)c2ccc(C)cc2)cc1 | growth | 96.7 |
| Cc1cnc(C=O)c2cccc([N+](=O)[O-])c12 | growth | 70.7 |
| Cc1ccc(S(=O)(=O)Oc2ccccc2-c2ccccc2)cc1 | growth | 23.2 |

----------
# System: SN12C renal
# Test Protocol: NCI-60 one-dose screen, 48 h (100 = growth as untreated, 0 = no growth, -100 = all killed)
# Details: 10 µM
The panel holds about 83,000 compounds, 20% with a hit somewhere; the sample as a whole holds those more often.
Entries and their growth

| Smiles Repr | Test Target | growth [%] |
| --- | --- | --- |
| COc1cc(/C=C/C(=O)c2cc(-c3ccc(C(F)(F)F)cc3)ccc2O)cc(OC)c1OC | SN12C renal | 66.7 |
| Fc1ccc(-c2cc(C(Cl)Cl)no2)cc1 | SN12C renal | 97.6 |
| COc1ccc(-c2oncc2-c2cc(OC)c3c(c2)OCO3)cc1 | SN12C renal | 35.9 |
| Nc1c(C(=O)Nc2ccccc2F)sc2nc3c(cc12)C(=O)CCC3 | SN12C renal | 49.8 |
| COc1ccc2nc(-c3ccccc3)cc(C(C)=O)c2c1 | SN12C renal | 94.9 |
| FC(F)(F)c1ccc(-c2cnc(Br)nc2NC2CCCCCC2)cc1 | SN12C renal | 21.9 |
